# target_under_test: T1, human EphB1 (Homo sapiens, UniProt P54762)
# T1 construct: a protein of the extracellular region of each human Eph receptor fused with the SEAP protein and the His tag; made in house; host or cells: Expi293F cells (culture supernatant)
# T1 sequence (P54762 18-540 limits assumed): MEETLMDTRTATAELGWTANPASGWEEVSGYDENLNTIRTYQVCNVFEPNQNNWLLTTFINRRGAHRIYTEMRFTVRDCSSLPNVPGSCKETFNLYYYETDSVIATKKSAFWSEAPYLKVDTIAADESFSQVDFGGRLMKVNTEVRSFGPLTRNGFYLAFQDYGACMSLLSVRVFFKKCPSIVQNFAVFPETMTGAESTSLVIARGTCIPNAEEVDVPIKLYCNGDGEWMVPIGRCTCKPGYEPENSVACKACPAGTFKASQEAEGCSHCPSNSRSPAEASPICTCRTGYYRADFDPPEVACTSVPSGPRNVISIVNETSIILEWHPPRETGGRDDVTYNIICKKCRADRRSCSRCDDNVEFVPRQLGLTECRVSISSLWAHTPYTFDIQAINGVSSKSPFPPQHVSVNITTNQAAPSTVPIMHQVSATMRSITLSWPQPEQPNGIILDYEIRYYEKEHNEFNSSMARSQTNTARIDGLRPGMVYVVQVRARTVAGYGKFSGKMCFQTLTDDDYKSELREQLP
# protocol_notes: Selectivity ELISA of humanized antibodies for human Eph receptor
# Assay type: binding
# test_parameters: coated protein 1 nM
recorded_endpoint: hEphB1-SEAP-: absorbance at 450 nm, percentage with respect to hEphA4-SEAP-His as 100% (%)
Only the number, expressed in %, is required.

Inquiry: Kindly indicate its recorded hEphB1-SEAP-: absorbance at 450 nm, percentage with respect to hEphA4-SEAP-His as 100%. Item: 86 (antibody, V domains shown, constant regions without entry; synthetic humanized antibody light chain variable region sequence; synthetic humanized antibody heavy chain variable region sequence) VL: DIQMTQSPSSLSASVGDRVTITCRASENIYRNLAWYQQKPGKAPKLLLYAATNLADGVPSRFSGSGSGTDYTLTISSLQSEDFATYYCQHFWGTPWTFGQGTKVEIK VH: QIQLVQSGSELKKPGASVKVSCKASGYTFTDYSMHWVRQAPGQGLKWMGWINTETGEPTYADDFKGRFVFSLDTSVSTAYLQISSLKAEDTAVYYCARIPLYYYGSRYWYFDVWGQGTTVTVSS
Reply text: 5.7
